Sourced from ChEMBL document CHEMBL2029294

- test-target: Arachidonate 5-lipoxygenase-activating protein (Homo sapiens, UniProt P20292)
- Sequence (P20292 whole entry): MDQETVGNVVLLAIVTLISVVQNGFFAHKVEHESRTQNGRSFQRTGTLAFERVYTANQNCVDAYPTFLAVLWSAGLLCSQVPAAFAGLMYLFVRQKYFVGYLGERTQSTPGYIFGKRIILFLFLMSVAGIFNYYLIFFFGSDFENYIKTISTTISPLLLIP
- method-notes: Inhibition of 5-lipoxygenase-activating protein in human polymorphonuclear cells assessed as inhibition of calcium ionophore-induced LTB4 production in presence of human whole blood
- Format: tissue-based
pIC50: −log10 of the molar value.
Assign class by pIC50: not lower than 6 means MET; lower than 6 means NOT MET.

[
  {
    "compound": "COC(=O)c1ccc(OCc2ccc3ccccc3n2)cc1C(C)(C)c1ccccc1",
    "test-target": "Arachidonate 5-lipoxygenase-activating protein (Homo sapiens, UniProt P20292)",
    "category": "NOT MET"
  },
  {
    "compound": "COC(=O)c1ccc(OCc2ccc3ccccc3n2)cc1C1(c2ccccc2)CCCCC1",
    "test-target": "Arachidonate 5-lipoxygenase-activating protein (Homo sapiens, UniProt P20292)",
    "category": "NOT MET"
  },
  {
    "compound": "CCC(CC)(c1ccccc1)c1cc(OCc2ccc3ccccc3n2)ccc1C(=O)OC",
    "test-target": "Arachidonate 5-lipoxygenase-activating protein (Homo sapiens, UniProt P20292)",
    "category": "NOT MET"
  },
  {
    "compound": "COC(=O)c1ccc(OCc2ccc3ccccc3n2)cc1[C@]1(c2ccccc2)C[C@H]2CC[C@H]1C2 (racemic)",
    "test-target": "Arachidonate 5-lipoxygenase-activating protein (Homo sapiens, UniProt P20292)",
    "category": "MET"
  },
  {
    "compound": "Nc1nnc(-c2ccc(OCc3ccc4ccccc4n3)cc2[C@]2(c3ccccc3)C[C@H]3CC[C@H]2C3)o1 (racemic)",
    "test-target": "Arachidonate 5-lipoxygenase-activating protein (Homo sapiens, UniProt P20292)",
    "category": "MET"
  },
  {
    "compound": "O=C(Nc1cccnc1)c1ccc(OCc2ccc3ccccc3n2)cc1[C@]1(c2ccccc2)C[C@H]2CC[C@H]1C2 (racemic)",
    "test-target": "Arachidonate 5-lipoxygenase-activating protein (Homo sapiens, UniProt P20292)",
    "category": "NOT MET"
  },
  {
    "compound": "FC(F)n1nnc(-c2ccc(OCc3ccc4ccccc4n3)cc2[C@]2(c3ccccc3)C[C@H]3CC[C@H]2C3)n1 (racemic)",
    "test-target": "Arachidonate 5-lipoxygenase-activating protein (Homo sapiens, UniProt P20292)",
    "category": "MET"
  },
  {
    "compound": "Cc1nc(-c2ccc(OCc3ccc4ccccc4n3)cc2[C@]2(c3ccccc3)C[C@H]3CC[C@H]2C3)no1 (racemic)",
    "test-target": "Arachidonate 5-lipoxygenase-activating protein (Homo sapiens, UniProt P20292)",
    "category": "MET"
  },
  {
    "compound": "COC(=O)c1ccc(OCc2ccc3ccccc3n2)cc1[C@]1(c2ccccc2F)C[C@H]2CC[C@H]1C2 (racemic)",
    "test-target": "Arachidonate 5-lipoxygenase-activating protein (Homo sapiens, UniProt P20292)",
    "category": "NOT MET"
  },
  {
    "compound": "CC(C)(C)[C@@H](c1ccccc1)c1cc(OCc2ccc3ccccc3n2)ccc1-c1n[nH]c(=O)o1",
    "test-target": "Arachidonate 5-lipoxygenase-activating protein (Homo sapiens, UniProt P20292)",
    "category": "MET"
  },
  {
    "compound": "c1ccc([C@@]2(c3cc(OCc4ccc5ccccc5n4)ccc3-c3nnco3)C[C@H]3CC[C@H]2C3)cc1 (racemic)",
    "test-target": "Arachidonate 5-lipoxygenase-activating protein (Homo sapiens, UniProt P20292)",
    "category": "MET"
  },
  {
    "compound": "COC(=O)c1ccc(OCc2ccc3ccccc3n2)cc1C1(c2ccccc2)CCCC1",
    "test-target": "Arachidonate 5-lipoxygenase-activating protein (Homo sapiens, UniProt P20292)",
    "category": "NOT MET"
  },
  {
    "compound": "COC(=O)c1ccc(OCc2ccc3ccccc3n2)cc1C(CC(C)(C)C)c1ccccc1 (racemic)",
    "test-target": "Arachidonate 5-lipoxygenase-activating protein (Homo sapiens, UniProt P20292)",
    "category": "NOT MET"
  },
  {
    "compound": "COC(=O)c1ccc(OCc2ccc3ccccc3n2)cc1[C@]1(c2cccc(C(F)(F)F)c2)C[C@H]2CC[C@H]1C2 (racemic)",
    "test-target": "Arachidonate 5-lipoxygenase-activating protein (Homo sapiens, UniProt P20292)",
    "category": "NOT MET"
  },
  {
    "compound": "COC(=O)c1ccc(OCc2ccc3ccccc3n2)cc1[C@]1(c2cccc(OC)c2)C[C@H]2CC[C@H]1C2 (racemic)",
    "test-target": "Arachidonate 5-lipoxygenase-activating protein (Homo sapiens, UniProt P20292)",
    "category": "MET"
  },
  {
    "compound": "CCn1nnc(-c2ccc(OCc3ccc4ccccc4n3)cc2[C@]2(c3ccccc3)C[C@H]3CC[C@H]2C3)n1 (racemic)",
    "test-target": "Arachidonate 5-lipoxygenase-activating protein (Homo sapiens, UniProt P20292)",
    "category": "MET"
  },
  {
    "compound": "COC(=O)c1ccc(OCc2ccc3ccccc3n2)cc1[C@]1(c2cccc(F)c2)C[C@H]2CC[C@H]1C2 (racemic)",
    "test-target": "Arachidonate 5-lipoxygenase-activating protein (Homo sapiens, UniProt P20292)",
    "category": "MET"
  },
  {
    "compound": "O=c1[nH]nc(-c2ccc(OCc3ccc4ccccc4n3)cc2[C@@]2(c3ccccc3)C[C@H]3CC[C@H]2C3)o1",
    "test-target": "Arachidonate 5-lipoxygenase-activating protein (Homo sapiens, UniProt P20292)",
    "category": "MET"
  },
  {
    "compound": "COC(=O)c1ccc(OCc2ccc3ccccc3n2)cc1C(c1ccccc1)C1CCCCC1 (racemic)",
    "test-target": "Arachidonate 5-lipoxygenase-activating protein (Homo sapiens, UniProt P20292)",
    "category": "NOT MET"
  },
  {
    "compound": "O=C(c1ccc(OCc2ccc3ccccc3n2)cc1[C@]1(c2ccccc2)C[C@H]2CC[C@H]1C2)N1CCCC1 (racemic)",
    "test-target": "Arachidonate 5-lipoxygenase-activating protein (Homo sapiens, UniProt P20292)",
    "category": "NOT MET"
  },
  {
    "compound": "Cn1nnc(-c2ccc(OCc3ccc4ccccc4n3)cc2[C@]2(c3ccccc3)C[C@H]3CC[C@H]2C3)n1 (racemic)",
    "test-target": "Arachidonate 5-lipoxygenase-activating protein (Homo sapiens, UniProt P20292)",
    "category": "MET"
  }
]
